- ASSAY COMMENT: Plasma pharmacokinetics, healthy subjects
- Format: in vivo, human
- APPLIED CONDITIONS: human; plasma prodrug; healthy subjects; 50 mg oral dose; geometric mean (CV%); read-out: Cmax
RESULT TYPE: Cmax
Reply with the number, then its unit.

Problem: Looking for the measured Cmax of CCOC(=O)OC[C@H]1O[C@@H](Oc2nn(C(C)C)c(C)c2Cc2ccc(OC(C)C)cc2)[C@H](O)[C@@H](O)[C@@H]1O [Remogliflozin etabonate, remogliflozin etabonate] , can you help?
Result: 4.98 ng/mL

* * *

- ASSAY COMMENT: Plasma pharmacokinetics, healthy subjects
- Type: in vivo, human
- APPLIED CONDITIONS: human; plasma analyte; healthy subjects; remogliflozin etabonate 150 mg oral dose; read-out: Cmax Geometric mean (CV%)
- Procedure: Ten healthy subjects were evaluated in 5 study sessions, each separated by approximately 2 weeks. At each study session, subjects received either an oral dose of remogliflozin etabonate or placebo after an overnight fast. […] The available safety and PK results from each dosing period were evaluated before proceeding to the next dose level. […] Ratios of AUC(0–∞) remogliflozin to AUC(0–last) remogliflozin etabonate were calculated including molecular weight corrections. […]
RESULT TYPE: Cmax (ng/mL)
Please state the figure in ng/mL; there is no need to write the unit.

MOLECULE: Cc1[nH]nc(O[C@@H]2O[C@H](CO)[C@@H](O)[C@H](O)[C@H]2O)c1Cc1ccc(OC(C)C)cc1 [GSK279782]
Cmax [ng/mL]: 155

We now examine a further molecule.
Problem: Looking for the measured Cmax of Cc1c(Cc2ccc(OC(C)C)cc2)c(O[C@@H]2O[C@H](CO)[C@@H](O)[C@H](O)[C@H]2O)nn1C(C)C [Remogliflozin, remogliflozin] , can you help?
Result: 515
